tested on: NCI-H226; assay: Cytotoxicity against human NCI-H226 cells assessed as cell growth at 10 uM; format: functional; conditions: Homo sapiens, NCI-H226; read-out: Activity
observable: growth at 10 µM (%)

>>> numeric_value("c1ccc(-c2ccc(-c3ccnc(Nc4ccc(N(c5ccccc5)c5ccccc5)cc4)n3)cn2)cc1")
115
>>> numeric_value("FC(F)(F)c1cc(Nc2nccc(-c3ccc(Nc4ccccc4)nc3)n2)cc(C(F)(F)F)c1")
98
>>> numeric_value("CC(=O)c1ccccc1-c1ccc(-c2ccnc(NC(=O)Nc3cc(C(F)(F)F)cc(C(F)(F)F)c3)n2)cn1")
98.6
>>> numeric_value("O=C(Nc1cc(C(F)(F)F)cc(C(F)(F)F)c1)Nc1nccc(-c2ccc(Nc3ccccc3)nc2)n1")
104
>>> numeric_value("CC(=O)Nc1cccc(-c2ccc(-c3ccnc(NC(=O)Nc4cc(C(F)(F)F)cc(C(F)(F)F)c4)n3)cn2)c1.Cl")
59.8
>>> numeric_value("FC(F)(F)c1cc(Nc2nccc(-c3cccnc3)n2)cc(C(F)(F)F)c1")
99.6
>>> numeric_value("FC(F)(F)c1cc(Nc2nccc(-c3ccc(-c4ccccc4)nc3)n2)cc(C(F)(F)F)c1")
115
>>> numeric_value("Cc1cc(-c2cccnc2)nc(NC(=O)c2cccc(C(F)(F)F)c2)n1")
97.5
>>> numeric_value("Cc1ccc(Nc2nc(C)cc(-c3cccnc3)n2)c(C)c1")
94.8
>>> numeric_value("CC(=O)c1ccccc1-c1ccc(-c2ccnc(NC(=O)Nc3cc(N4CCOCC4)cc(C(F)(F)F)c3)n2)cn1")
39.4
>>> numeric_value("CC(=O)c1ccc(-c2ccc(-c3ccnc(Nc4cc(C(F)(F)F)cc(C(F)(F)F)c4)n3)cn2)cc1")
100

----------
system: MDA-MB-468; assay: Cytotoxicity against human MDA-MB-468 cells assessed as cell growth at 10 uM; type: functional; settings: Homo sapiens, MDA-MB-468; read-out: Activity
Catalogue of growth at 10 µM values
observable: growth at 10 µM (%)

>>> numeric_value("FC(F)(F)c1cc(Nc2nccc(-c3ccc(-c4ccccc4)nc3)n2)cc(C(F)(F)F)c1")
110
>>> numeric_value("O=C(Nc1cc(C(F)(F)F)cc(C(F)(F)F)c1)Nc1nccc(-c2ccc(Nc3ccccc3)nc2)n1")
108
>>> numeric_value("CC(=O)Nc1cccc(-c2ccc(-c3ccnc(NC(=O)Nc4cc(C(F)(F)F)cc(C(F)(F)F)c4)n3)cn2)c1.Cl")
-30.3
>>> numeric_value("CC(=O)c1ccc(-c2ccc(-c3ccnc(Nc4cc(C(F)(F)F)cc(C(F)(F)F)c4)n3)cn2)cc1")
106
>>> numeric_value("c1ccc(-c2ccc(-c3ccnc(Nc4ccc(N(c5ccccc5)c5ccccc5)cc4)n3)cn2)cc1")
105
>>> numeric_value("CC(=O)c1ccccc1-c1ccc(-c2ccnc(NC(=O)Nc3cc(N4CCOCC4)cc(C(F)(F)F)c3)n2)cn1")
82.1
>>> numeric_value("CC(=O)c1ccccc1-c1ccc(-c2ccnc(NC(=O)Nc3cc(C(F)(F)F)cc(C(F)(F)F)c3)n2)cn1.Cl")
74.7
>>> numeric_value("Cc1cc(-c2cccnc2)nc(NC(=O)c2cccc(C(F)(F)F)c2)n1")
96.7
>>> numeric_value("FC(F)(F)c1cc(Nc2nccc(-c3cccnc3)n2)cc(C(F)(F)F)c1")
98.4
>>> numeric_value("FC(F)(F)c1cc(Nc2nccc(-c3ccc(Nc4ccccc4)nc3)n2)cc(C(F)(F)F)c1")
89.6
>>> numeric_value("Cc1ccc(Nc2nc(C)cc(-c3cccnc3)n2)c(C)c1")
72.8
